Exercise: state measured composite z-score for each of the molecules provided.
- Tested on: Plasmodium falciparum Sir2 (PF13_0152, Sir2A)
- test: pfSir2 binders on small-molecule microarrays, primary screen, biochemical, small-molecule microarray, 635 nm fluorescence (AID 1098);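 also: score merges spot fluorescence intensity with its signal-to-noise ratio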
- measurement_setup: small-molecule microarray binding, fluorescence 635 nm; higher = more signal
Give bare numbers.

# annotated cases, reported composite z-score shown
C[C@H]1NC(=O)[C@@H](C)NC(=O)[C@@]23C(=O)N[C@@H](Cc4ccccc4)C2[C@H](C)[C@@]2(C)O[C@H]2C3/C=C/C/C=C\CNC1=O (some centres not stated) ... 1.66
C=CC[C@@]1(C(=O)N2CCOCC2)N=C(c2ccc(OCCCO)cc2)O[C@@H]1c1ccccc1 ... -0.406
Cc1ccc([C@@H]2CC=C(C(=O)O)[C@H](c3ccccc3)N2S(=O)(=O)c2ccc(C)cc2)cc1 ... 1.44
CO[C@H]1COC(=O)[C@H](Cc2ccccc2)NC(=O)CC=C[C@@H](C)[C@H](OC)COC(=O)CC=C[C@@H]1C ... 0.143
CCOC(=O)C[C@H]1[C@H](OC(=O)c2cc3ccccc3oc2=O)[C@@H](NC(=O)c2ccc3ccccc3c2)c2cc(OCCCO)ccc2N1C(=O)c1ccc2ccccc2n1 ... 0.209
[N-]=[N+]=NCc1ccccc1[C@H]1OC(c2ccc(OCCCO)cc2)=N[C@@]1(Cc1ccccc1N=[N+]=[N-])C(=O)NCc1ccccc1 ... 1.01

Next, consider the following molecule.
Given the molecule C/C(=N\O)C(=O)NCCCCCNC(=O)OCc1ccccc1 , what is its reported composite z-score? 0.807
